// data source = patent US20200164071A1

# system: T1, human TIGIT on CHO-K1 cells (human, UniProt Q495A1 23-244)
# T1 construct: also called hu TIGIT; TIGIT+CHO-K1 cells
# T1 sequence: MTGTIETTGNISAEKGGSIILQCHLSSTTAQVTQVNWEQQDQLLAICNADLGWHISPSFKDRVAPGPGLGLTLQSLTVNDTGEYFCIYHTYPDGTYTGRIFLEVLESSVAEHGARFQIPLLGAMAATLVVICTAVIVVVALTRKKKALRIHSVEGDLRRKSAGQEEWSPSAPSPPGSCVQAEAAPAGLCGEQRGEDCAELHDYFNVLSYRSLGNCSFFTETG
# method summary: flow cytometry competition with biotinylated hPVR-mIg on CHO-K1 cells expressing human TIGIT
metric name: IC50 (pM)

{"binder": "T-06 (antibody, V domains shown, Anti-human TIGIT monoclonal antibody from mouse hybridoma; also called anti-hu TIGIT mab T-06) VH: QVQLQESGPGLVKPSQTLSLTCTVSGGSVSSDYAWNWIRQPPGKGLEWIGYITYSGSTSYNPSLKSRVTISVDTSKNQFSLKLSSVTAADTAVYYCARRQVGLGFAYWGQGTLVTVSA VL: DIQMTQSPSSLSASVGDRVTITCKASQDVSTAVAWYQQKPGKAPKLLIYSASYHYTGVPSRFSGSGSGTDFTLTISSLQPEDFATYYCQQHYSTPWTFGGGTKLEIK", "result": 840}
{"binder": "T-07 (antibody, V domains shown, Anti-human TIGIT monoclonal antibody from mouse hybridoma; also called anti-hu TIGIT mab T-07) VH: EVQLQESGPGLVKPSDTLSLTCAVSGYSITSDSAWNWIRQPPGKGLEWIGYITYSGSTNYNPSLRSRVTMSVDTSKNQFSLKLSSVTAVDTAVYYCTRRQVGLGFAYWGQGTLVTVSA VL: DIQMTQSPSSLSASVGDRVTITCKASQDVSTAVAWYQQKPGKAPKLLIYSASYRFTGAPSRFSGSGSGTDFTLTISSLQPEDFGIYYCQHHYSTPWTFGGGTKLEFK", "result": 500}
